A collection of binders and their measured Kd
Biological target: T1, human ActRIIB (human, UniProt Q13705 19-137, limits assumed)
T1 construct: antigen in MSD-SET; also called ACVR2B; ActR2B
T1 sequence: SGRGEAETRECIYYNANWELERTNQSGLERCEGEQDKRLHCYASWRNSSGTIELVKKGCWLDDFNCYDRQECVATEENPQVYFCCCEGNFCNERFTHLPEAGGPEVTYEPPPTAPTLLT
Assay: MSD-SET
All answers are understood in nM, so give the number only.

Ochsamaulsalat Fab (Fab, V domains shown, Fab) VH: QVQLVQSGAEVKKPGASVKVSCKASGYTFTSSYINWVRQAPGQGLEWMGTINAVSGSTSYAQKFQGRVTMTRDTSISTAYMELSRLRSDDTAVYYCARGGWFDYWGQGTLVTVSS VL: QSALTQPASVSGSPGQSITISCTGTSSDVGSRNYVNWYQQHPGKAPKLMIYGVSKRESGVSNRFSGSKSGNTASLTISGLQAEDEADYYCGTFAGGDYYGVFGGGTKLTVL = 0.062

// switching to the query binder
# Kd of Antibody Biiramooscht (antibody, V domains shown, full-length IgG) VH: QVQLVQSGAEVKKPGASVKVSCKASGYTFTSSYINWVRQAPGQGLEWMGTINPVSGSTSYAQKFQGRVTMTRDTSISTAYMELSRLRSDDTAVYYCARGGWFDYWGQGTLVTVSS VL: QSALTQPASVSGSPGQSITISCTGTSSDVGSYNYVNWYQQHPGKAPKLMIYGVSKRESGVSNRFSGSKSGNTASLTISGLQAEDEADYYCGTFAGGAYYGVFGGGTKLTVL = 0.005
